Biological target: canine TRPM8 (Canis lupus familiaris)
Sequence (Q1A7N1 1-1104): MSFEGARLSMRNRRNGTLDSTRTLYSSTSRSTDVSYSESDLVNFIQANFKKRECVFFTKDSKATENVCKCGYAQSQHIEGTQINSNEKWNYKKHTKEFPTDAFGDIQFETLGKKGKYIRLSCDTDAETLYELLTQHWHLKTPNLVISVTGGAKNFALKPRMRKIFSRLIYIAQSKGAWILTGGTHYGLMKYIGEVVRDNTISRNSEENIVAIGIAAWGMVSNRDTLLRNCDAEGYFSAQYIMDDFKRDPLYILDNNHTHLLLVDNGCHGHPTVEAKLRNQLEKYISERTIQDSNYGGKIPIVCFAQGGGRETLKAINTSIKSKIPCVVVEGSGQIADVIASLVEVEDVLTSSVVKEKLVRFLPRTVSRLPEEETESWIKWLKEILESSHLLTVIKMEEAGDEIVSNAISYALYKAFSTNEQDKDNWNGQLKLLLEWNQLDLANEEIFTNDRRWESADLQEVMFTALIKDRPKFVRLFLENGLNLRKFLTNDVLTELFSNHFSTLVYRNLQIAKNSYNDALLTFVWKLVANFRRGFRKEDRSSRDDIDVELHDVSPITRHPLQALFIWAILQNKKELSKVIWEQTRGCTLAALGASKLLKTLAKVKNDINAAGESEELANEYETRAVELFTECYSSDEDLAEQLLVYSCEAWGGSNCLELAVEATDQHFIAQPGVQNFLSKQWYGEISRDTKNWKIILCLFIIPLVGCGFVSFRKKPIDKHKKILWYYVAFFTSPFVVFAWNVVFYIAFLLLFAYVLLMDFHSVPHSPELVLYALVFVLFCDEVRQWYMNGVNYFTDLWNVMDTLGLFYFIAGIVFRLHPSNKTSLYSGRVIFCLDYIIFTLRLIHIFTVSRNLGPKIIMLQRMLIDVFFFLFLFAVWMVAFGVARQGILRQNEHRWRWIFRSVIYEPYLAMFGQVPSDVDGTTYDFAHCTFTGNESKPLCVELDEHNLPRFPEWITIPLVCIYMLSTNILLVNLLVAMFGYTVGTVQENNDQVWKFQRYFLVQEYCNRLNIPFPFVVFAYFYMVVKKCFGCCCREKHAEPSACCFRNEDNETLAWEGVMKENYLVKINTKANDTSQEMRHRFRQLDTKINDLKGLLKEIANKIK
Assay: In Vitro Canine TRPM8 Functional Assay (Ca2+ fluorescence, icilin activation)
Type: cell-based
Conditions: compound at 0.2 μM; canine TRPM8, icilin activation; read-out: % Inh @ 0.2
Reported inhibition at 0.2 µM values follow for various compounds
Give the value, in units of %, as a plain number.

| smilesRepr | testedSystem | experimentalResult |
| --- | --- | --- |
| Cc1c(N(CCC2CC2)S(=O)(=O)c2ccc(N3CCNCC3)cc2)sc2ccccc12 | canine TRPM8 (Canis lupus familiaris) | 66 |
| CCS(=O)(=O)N(CCOC(C)(C)C)c1sc2ccccc2c1C | canine TRPM8 (Canis lupus familiaris) | 97 |
| Cc1c(N(Cc2cccc(C(F)(F)F)c2)S(=O)(=O)c2ccc(C(=O)O)cc2)sc2ccccc12 | canine TRPM8 (Canis lupus familiaris) | 101 |

For O=S(=O)(c1ccccc1)N(CCN1CCOCC1)c1sc2ccccc2c1Br the compound record lists inhibition at 0.2 µM as 87
